- STUDY_TARGET: T1, SARS-CoV-2 Wuhan-Hu-1 recombinant spike protein (trimer) (SARS-CoV-2 Wuhan-Hu-1, UniProt P0DTC2)
- T1 construct: source: bought: Sino Biologics
- ASSAY_REMARKS: ELISA
- RUN_CONDITIONS: both partners purified

BINDER	binding result
C68.348 (antibody, V domains shown) VH: QVQLQESGPRLVKSSGTLSLTCAVSGGSISSSKWWSWVRQPPGKGLEWIGEVYHGGSTNYNPSLKSRVTISVDKAKNQFSLKLSSVTAADSAVYYCASLDSAAVFDYWGQGTLVTVSS VL: QSALTQPASVSGSPGQSITISCTGTSSDVGRFNYVSWYQQHPGKAPKLLIYDVSNRPSGVSNRFSGSKSGNTASLTISGLQAEDEADYYCNSYTSSSTLYVFGTGTKVTVL	binds
C68.88 (antibody, V domains shown) VH: QVQLQESGPGLVKPSETLSLTCSVSGGPISSSRYYWGWIRQSPGEGLEWIGTIYYSGSTYYNPSFKSRVTISVDTSKNQFSLKLSSVTAADTAVYYCATRCYDFWSGYYNREMLWFDCWGQGTLVTVSS VL: NFMLTQPHSVSESPGKTVTISCTRSSGSIASNYVQWYQQRPGSSPTTVIYENNQTPSGVPDRFSGSIDSSSNSASLTISGLKTEDEADYYCQSYDSSVVVFGGGTKLTVL	binds
C68.200 (antibody, V domains shown) VH: EVQLLESGGGLVQPGGSLRLSCTASGFTFSRYALTWVRQAPGKGLEWVSAISGSGGNTNYADSVKGRFTISRDNSKNTLYLQMNSLRAEDTAVYYCAKSPRYNNDYFDFWGQGTLVTVSS VL: DIQLTQSPSTLSASVGDRVTITCRASQSISSWLAWYQQKPGKAPKLLIYDASSLESGVPSRFSGSGSGTEFTLTISSLQPDDFATYYCQQYNTFITFGHGTRLEIK	binds
